Data origin: PubChem BioAssay AID2252

Tested on: THP-1 viability, CellTiter-Glo luminescence, 72 h
assay details: PubChem AID 2252
measured attribute: EC50

Worked examples follow.
compound	value observed
CN(C)CC/C=C1\c2ccccc2Sc2ccc(Cl)cc21	17 µM
CC[n+]1c(/C=C/N(C)c2ccccc2)n(-c2ccccc2)c2ccc(-c3nc4ccccc4s3)cc21	0.44 µM
CCCCCCCCC1=NCCc2c1[nH]c1ccccc21	15 µM
O=c1c2ccccc2nc(COc2ccccc2)n1/N=C/c1ccc(O)cc1O	1.46 µM
CNC[C@H](Cc1ccccc1)NC[C@@H](Cc1cccc2ccccc12)NCCc1ccc(C)cc1	4.01 µM
Cc1cccc(Nc2c3c(nc4ccccc24)CCC3)c1	6.27 µM

May I ask what EC50 has been recorded for `COc1ccc(OC)c(S(=O)(=O)N2CCC(C(=O)NCc3ccccc3OC)CC2)c1` ?
< 0.1 µM

Another compound to look at: `OC1(c2ccc(Cl)cc2)CCN(Cc2c[nH]c3ccccc23)CC1`
9.75 µM

Again, but for `CC(=O)Nc1nc(C)c(-c2csc(Nc3ccc(O)cc3)n2)s1`
4.01 µM

Try this compound next: `Oc1ccc(CN2CCN(c3ccccc3)CC2)c2cccnc12`
5.88 µM

###

Test system: THP-1 viability, CellTiter-Glo luminescence, 72 h
assay details: PubChem AID 2252
EC50 values, listed per item

                                   compound                         target_under_test  measured_attribute  value_observed
0  COc1cc(CNCCc2c[nH]c3ccccc23)ccc1OCc1ccc(F)cc1  THP-1 viability, CellTiter-Glo luminescence, 72 h                EC50         6.34 µM
1            O=C(CCc1ccccc1)NNC(=O)c1ccccn1  THP-1 viability, CellTiter-Glo luminescence, 72 h                EC50         18.2 µM
2  Cc1cc(C)c(NC(=O)C[N+](C)(C)CC(O)COc2cccc3ccccc23)c(C)c1 (stereo not drawn)  THP-1 viability, CellTiter-Glo luminescence, 72 h                EC50         12.8 µM
3  O=[N+]([O-])c1cc(Cl)cc(/C=N/NC(=S)Nc2ccc(S(=O)(=O)N3CCOCC3)cc2)c1O  THP-1 viability, CellTiter-Glo luminescence, 72 h                EC50         27.1 µM
4      O=C(NNC(=S)NC(=O)c1ccco1)c1ccc(F)cc1  THP-1 viability, CellTiter-Glo luminescence, 72 h                EC50         9.47 µM
5  CN(C)CC/C=C1\c2ccc(F)cc2Sc2cc(F)c(Cl)cc21  THP-1 viability, CellTiter-Glo luminescence, 72 h                EC50         11.3 µM

What measured EC50 goes with CN1CCN(C2Cc3cc(F)ccc3Sc3ccc(Cl)cc32)CC1 (stereo not drawn) ?
14.7 µM

Similarly, `Cc1nc2ccccc2c(N)c1C(=O)/C=C/c1ccccc1` ?
3.11 µM

Then `Cc1ccc(OCC(=O)N/N=C\c2c(C)[nH]n(-c3ccccc3)c2=O)c([N+](=O)[O-])c1` ?
6.86 µM

// repeat for `O=C(CNCCC1=CCCCC1)Nc1ccc(N2CCCCCC2)cc1` and report
15.6 µM

Then `Cc1ccc2nc(NCc3ccccc3)[nH]c2c1` ?
3.85 µM

What do you get for CN(C)CCCNC(=S)NCC(c1ccc(Cl)cc1Cl)c1c[nH]c2ccccc12 (stereo not drawn) ?
3.66 µM

Request: `Cc1ccc(C)c(N/C(N)=N/c2nc(C)cc(C)n2)c1`
27 µM

Record: `Oc1ccc(/C=N/N=C(c2ccccc2)c2ccccc2)c(O)c1O`
7.47 µM

###

Test system: THP-1 viability, CellTiter-Glo luminescence, 72 h
assay details: PubChem AID 2252
pEC50: −log10 of the molar value.
List of pEC50 values.

Some molecules with recorded pEC50:
molecule	value observed
Cc1cc(O)c2c(c1)C(=O)C13C(=C2O)C(=O)[C@H]2[C@@H](O)[C@@H]1[C@H]1[C@H](O)[C@@H]3C(=O)C3=C(O)c4c(O)cc(C)cc4C(=O)C312 (some centres undefined)	5.20
COc1ccc(CNCCc2cccc(F)c2)c2ccccc12	4.89
CCOC(=O)N/N=C(/C)c1ccc([N+](=O)[O-])o1	4.47

I'd like to know its pEC50. The molecule in question is `Cc1ccc(C(=O)NNC(=S)NC(=O)COc2ccccc2)cc1`
4.82

Try this molecule next: `O=C(/C=C/c1ccccc1)c1ccc(NC2=NCCCS2)cc1`
4.56

###

As shown below, each of these compounds has a reported pEC50 value.
Tested on: THP-1 viability, CellTiter-Glo luminescence, 72 h
assay details: PubChem AID 2252
Scale note: pEC50 = -log10(concentration in M).

In [3]: df
Out[3]:
                                   compound  value_observed
0  CN(C)CCCNC(=O)c1ccc(-c2nc(-c3ccc(Cl)cc3)cs2)cc1            5.40
1  CCN(CC)c1ccc(/C=N/NC(=O)c2ccc3nc[nH]c3c2)c(O)c1            6.05
2  c1ccc2c(NCCc3c[nH]c4ccccc34)c3ccccc3nc2c1            5.36
3     c1ccc(Sc2cccc3ccccc23)c(CNC2=NCCN2)c1            5.23
4     CCCCc1ccc(N/C(N)=N/c2nc(C)cc(C)n2)cc1            5.19

Report pEC50 for `N=c1c2c(n(Cc3cccc(Cl)c3)c3c1CCC3)CCCC2` please.
4.87

Let us now turn to CCC(=O)c1ccc(OCC(O)CNCCc2ccc(Cl)cc2)cc1 (configuration not stated)
4.54

Entry to check: OC1CCCN(Cc2ccc3ccc4cccc5ccc2c3c45)C1 (configuration not stated)
4.82

Next compound: `CN(C)CC/C=C1/c2cc(F)ccc2Sc2ccc(Cl)cc21`
4.69

And then `Nc1cc2c3c(cccc3c1)C(=O)N(CCN1CCCC1)C2=O` , what is it?
4.95

Let us now turn to `CCCCCCCCCCCCOC(=O)C[N+](C)(C)C`
4.63

Entry `CCC(C)(C)c1ccc(OCCCC[n+]2ccccc2)c(C(C)(C)CC)c1` please
6.01

Now try `CCn1cc(C(=O)NCCc2ccccc2)c(=O)c2cc(F)c(N3CCN(C)CC3)cc21` .
4.45

Next compound up: `CC[C@@H](C)[C@H](CNC)NC[C@@H](Cc1cccc2ccccc12)NCCc1cccc(C(F)(F)F)c1`
5.23

Same read-out for `CCN1/C(=C/C(C)=C/c2sc3ccccc3[n+]2CC)Sc2ccccc21` ?
6.14

Would you mind doing `CN1CCN(c2nc3cc(C(F)(F)F)ccc3n3cccc23)CC1` as well?
4.37

Next entry: `CC[C@@H](C)[C@H](CN[C@H](CNC)C(C)C)NC[C@@H](C)c1ccc(CC(C)C)cc1`
5.22

Note, next up: `Cc1cc2ncn(/N=C/c3ccc([N+](=O)[O-])o3)c2cc1C`
4.31

Next: `Cc1ccc(C(=O)N2C(=S)C(c3ccc(F)cc3)=NC23CCN(C)CC3)cc1`
4.78

Entry to check: `O=C1c2ccc3c4c(ccc(c24)C(=O)N1c1cccc(O)c1)C(=O)N(c1cccc(O)c1)C3=O`
5.56

Further, for `CN(C)CCCn1c(SCC(=O)N2c3ccccc3Sc3ccccc32)nc2ccccc2c1=O` ?
4.85

Can you check `Clc1ccc(CN2CCc3c([nH]c4ccccc34)C2)cc1Cl` next?
5.09

###

System: THP-1 viability, CellTiter-Glo luminescence, 72 h
assay details: PubChem AID 2252
measured attribute: EC50

In [3]: df
Out[3]:
                                   molecule  value_observed
0  CC(Nc1nc(N2CCCCC2)nc2ccccc12)c1ccccc1 (stereo unspecified)         7.12 µM

Given `S=C(Nc1cc(Cl)cc(Cl)c1)NC1CCN(Cc2ccccc2)CC1` , state its recorded EC50.
14.6 µM

Same for Cc1cccc(NC(=O)C2CCCN2S(=O)(=O)c2ccc3c(c2)n(C)c(=O)c(=O)n3C)c1 (stereo unspecified)
11 µM

One more molecule: `COc1cccc(CNC23CC4CC(CC(C4)C2)C3)c1OCc1ccccc1`
22.3 µM

Moving on to the next molecule: `c1ccc(CN2CCC(Nc3nc(-c4cccs4)nc4ccccc34)CC2)cc1`
8.03 µM

Follow-up item: Cc1cc(OCC(O)CNC(C)c2ccccc2)ccc1C(C)C (stereo unspecified)
13.4 µM

Then what about the molecule `Cc1ccc(C(=O)N/C(=C\c2ccc(-c3ccc(Cl)cc3)o2)C(=O)NCCCN(C)C)cc1` ?
5.31 µM

Again, but for O=C(N/N=C\c1cccc([N+](=O)[O-])c1O)C1COc2ccccc2O1 (stereo unspecified)
25.4 µM

Try this molecule too: CN(C)c1ccc(O)c2c1CC1CC3C(N(C)C)C(=O)C(C(N)=O)=C(O)[C@@]3(O)C(=O)C1=C2O (stereo partly specified)
33.7 µM

Check `O=C(CN1C2=NCCN2c2ccccc21)c1ccco1` too.
< 0.1 µM

Moving on to the next molecule: `Cc1ccccc1C(=O)N/N=C/c1ccc([N+](=O)[O-])s1`
16.8 µM
